All values here come from ChEMBL document CHEMBL1129951.

# Tested on: HT-29
# experimental.details: In vitro cytotoxicity against HT-29 (human colon) cell line.
# Format: functional, cell-based
Class boundaries, taken from values of IC50, are as follows: Low (below 6 µM), Medium (6 µM to below 20 µM), High (20 µM or more)

>>> class_assignment("Cc1ccc2nc3sc(S(C)(=O)=O)nc3c(O)c2c1")
"High"
>>> class_assignment("CS(=O)(=O)c1nc2c(O)c3ccccc3nc2s1")
"High"

Exercise: Entry CCN(CC)CCNc1nc2c(O)c3ccccc3nc2s1 belongs to which category?
Key: Medium

Exercise: Would you mind sorting CSc1nc2c(O)c3ccccc3nc2s1 into the appropriate category?
Key: High

Exercise: Category of Cc1ccc2nc3sc(N4CCN(C)CC4)nc3c(O)c2c1 :
Key: Medium

Exercise: Category of Oc1c2ccccc2nc2sc(Cl)nc12 , please.
Key: Medium

Exercise: Assign a category based on measured IC50 for CN1CCN(c2nc3c(O)c4cc(F)ccc4nc3s2)CC1 and give only the class name.
Key: High

###

Consider the following compounds; for each one, report its IC50.
# System: A549
# experimental.details: In vitro cytotoxicity against A-549 (human lung carcinoma) cell line.
# Assay type: functional, cell-based

These solved cases illustrate the format of a correct answer.
>>> reported_measurement("CCN(CC)CCNc1nc2c(O)c3ccccc3nc2s1")
"7.22 µM"
>>> reported_measurement("Oc1c2ccccc2nc2sc(Cl)nc12")
"11.6 µM"
>>> reported_measurement("Cc1ccc2nc3sc(S(C)(=O)=O)nc3c(O)c2c1")
"> 60.4 µM"
>>> reported_measurement("CN1CCN(c2nc3c(O)c4ccccc4nc3s2)CC1")
"18.8 µM"
>>> reported_measurement("CSc1nc2c(O)c3cc(F)ccc3nc2s1")
"> 66.1 µM"
>>> reported_measurement("CCN(CC)CCCNc1c2ccccc2nc2sc(SC)nc12")
"6 µM"

Turning now to a further record.
Lookup result for CS(=O)(=O)c1nc2c(O)c3cc(F)ccc3nc2s1 ; measured IC50: 6 µM

###

# Tested on: HT-29
# experimental.details: In vitro cytotoxicity against HT-29 (human colon) cell line.
# Format: functional, cell-based
Kindly supply the reported pIC50 values for the records listed here.
Give bare numbers, as −log10 of the molar value.

>>> reported_measurement("CCN(CC)CCCNc1c2cc(C)ccc2nc2sc(SC)nc12")
5.27
>>> reported_measurement("CCN(CC)CCNc1nc2c(O)c3cc(F)ccc3nc2s1")
5.30

State recorded pIC50 for all listed compounds.
1. CN1CCN(c2nc3c(O)c4ccccc4nc3s2)CC1
2. Cc1ccc2nc3sc(Cl)nc3c(O)c2c1
3. CCN(CC)CCCNc1c2ccccc2nc2sc(SC)nc12

Key:
4.73
4.46
5.22
